Each recorded value in this set is attributed to patent US20140303084A1.

molecular target: human Factor IXa (human, UniProt P00740 47-191; P00740 227-461); assay: cell-based or functional assay
Square brackets hold non-standard residues; d marks the D form. Ends that are not written are not given here. NMeL = CN[C@@H](CC(C)C)C(=O)O

{"Binder": "FPIQHKLTCLSSDCWLFPSHSY", "EC50 [µM], FXa generation assay": "> 50 µM"}
{"Binder": "QLTCLASYCWLF", "EC50 [µM], FXa generation assay": "> 20 µM"}
{"Binder": "RRAPGKLTKLASYEWLFWTGIA-NH2 [RRAPGKLT-Lys-LASY-Glu-WLFWTGIA-CONH2]", "EC50 [µM], FXa generation assay": "> 1 µM"}
{"Binder": "[dK][NMeL]TCLASYCQLF (not fully specified (C-terminus); printed as k-MeLeu-TCLASYCQLF; cysteine pairing not given here) [k-MeLeu-TCLASYCQLF]", "EC50 [µM], FXa generation assay": "> 1 µM"}
{"Binder": "AIGTWFLWCYSALCTLKGPARR (not fully specified; printed as AIGTWFLWCYSALCTLKGPARR (retro); cysteine pairing not given here) [AIGTWFLWCYSALCTLKGPARR (retro)]", "EC50 [µM], FXa generation assay": "> 1 µM"}
{"Binder": "PRIRTVGPGSRSASGKLTCLASYCWLFLTGIA", "EC50 [µM], FXa generation assay": "< 0.5 µM"}
{"Binder": "GYRVPVGGLVRRAHGKLTCLASYCWLFWTGIA [GYRVPVGGLV RRAHG KLTCLASYCWLFWTGIA]", "EC50 [µM], FXa generation assay": "> 1 µM"}
{"Binder": "SRIRTVGPGSRSASGKSTCLASYCWLFWTGIA", "EC50 [µM], FXa generation assay": "< 0.5 µM"}
{"Binder": "LQELTKLTCLARSGWLVCNPGY", "EC50 [µM], FXa generation assay": "> 20 µM"}
{"Binder": "SKQGRPISPD[dR]RAAGKLTCLASYCW[NMeL]FWTGIA (not fully specified; cysteine pairing not given here) [SKQGRPISPDrRAAGKLTCLASYCW-NMeLeu-FWTGIA]", "EC50 [µM], FXa generation assay": "> 10 µM"}
{"Binder": "GDSGRKLSCLGSYCWLSVQFMA", "EC50 [µM], FXa generation assay": "< 0.5 µM"}
{"Binder": "KLTCLSSYCWLF", "EC50 [µM], FXa generation assay": "> 1 µM"}
